Test system: OCI-AML2
Test: cell viability relative to vehicle control; higher = less cytotoxic;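 also: after 48 h exposure read by CellTiter-Glo luminescence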
Details: 10 µM; SRSF2 genotype: P95H/wt
Counter-ions that a name gives are not always drawn.
Form field: cell viability (one value per entry).
ASSAY METRIC: cell viability (%)

COc1cc2/c(=N/c3ccc(Br)cc3F)nc[nH]c2cc1OCC1CCN(C)CC1 [Vandetanib (ZD6474)]; 77.3
Nc1nc2cc(-c3ccc4ncc(C(=O)N5CCOCC5)n4c3)ccc2o1 [Serabelisib (INK-1117,MLN-1117,TAK-117)]; 53
CC(C)=CCC[C@](C)(O[C@@H]1O[C@H](CO[C@@H]2OC[C@@H](O)[C@H](O)[C@H]2O)[C@@H](O)[C@H](O)[C@H]1O)[C@H]1CC[C@]2(C)[C@@H]1[C@H](O)C[C@@H]1[C@@]3(C)CC[C@H](O[C@@H]4O[C@H](CO)[C@@H](O)[C@H](O)[C@H]4O[C@@H]4O[C@H](CO)[C@@H](O)[C@H](O)[C@H]4O)C(C)(C)[C@@H]3CC[C@]12C [Ginsenoside Rb3]; 101
CCNC(=O)[C@@H]1CCCN1C(=O)[C@H](CCCN=C(N)N)NC(=O)[C@H](CC(C)C)NC(=O)[C@@H](CC(C)C)NC(=O)[C@H](Cc1ccc(O)cc1)NC(=O)[C@H](CO)NC(=O)[C@H](Cc1c[nH]c2ccccc12)NC(=O)[C@H](Cc1cnc[nH]1)NC(=O)[C@@H]1CCC(=O)N1 [S3718 Leuprolide Acetate.cdx]; 102
C/C=C/C=C/C(=O)O [Sorbic acid]; 106
CNC(=C[N+](=O)[O-])NCCSCc1ccc(CN(C)C)o1 [Ranitidine Hydrochloride]; 91
O=C(O)CCCN1CCC(O[C@@H](c2ccc(Cl)cc2)c2ccccn2)CC1 [Bepotastine Besilate]; 82.6
C=CC(=O)Nc1cc(Nc2nccc(-c3c[nH]c4ccccc34)n2)c(OC)cc1N(C)CCN(C)C; 0.35
Nc1ccccc1NC(=O)c1ccc(CNC(=O)OCc2cccnc2)cc1 [Entinostat (MS-275, SNDX-275)]; 0.59
O=C(Oc1coc(CSc2ncccn2)cc1=O)c1ccc([N+](=O)[O-])cc1; 97.9
N[C@@H](CSCCB(O)O)C(=O)O [BEC Hydrochloride]; 109
[Na+].[Na+].[Na+].[Na+].[Na+].[Na+].[O]=[W](=[O])([O-])[O-].[O]=[W](=[O])([O-])[O-].[O]=[W](=[O])([O-])[O-].[O]=[W](=[O])=[O].[O]=[W](=[O])=[O].[O]=[W](=[O])=[O].[O]=[W](=[O])=[O].[O]=[W](=[O])=[O].[O]=[W](=[O])=[O].[O]=[W](=[O])=[O].[O]=[W](=[O])=[O].[O]=[W](=[O])=[O] [SodiuM Metatungstate]; 88.9

====

Test system: MOLM14
Experiment: cell viability relative to vehicle control; higher = less cytotoxic
Conditions: 10 µM; SRSF2 genotype: SRSF2 P95H/wt
Structures can show the parent of a compound that is named as a salt.
ASSAY METRIC: cell viability (%)

CCNC(=O)c1[nH]nc(-c2cc(Cl)c(O)cc2O)c1-c1ccc(OC)cc1; 2.11
COc1cc2c(cc1Cc1cccc(Cl)c1F)c(=O)c(C(=O)O)cn2[C@H](CO)C(C)C; 57.3
Cc1cc(S(=O)(=O)O)c2c(C)ccc(C(C)C)cc1-2 [Sodium gualenate]; 99
Cc1cc([C@@H](C)Nc2ccccc2C(=O)O)c2nc(N3CCOCC3)cc(=O)n2c1; 49.6
C#C[C@]1(O)CC[C@H]2[C@@H]3CCc4cc(OC)ccc4[C@H]3CC[C@@]21C; 90.7
Cc1cc(O)c(-c2ccc([C@@H](C)CN(C)C)cc2)c2c1[nH]c(=O)c1sccc12; 0.25
CCCN1CCCC[C@H]1C(=O)Nc1c(C)cccc1C [Ropivacaine HCl]; 95
CN1CC2c3ccccc3Oc3ccc(Cl)cc3C2C1 (stereo not given) [Asenapine maleate]; 88
CC(=O)O[C@]1(C(C)=O)CC[C@H]2[C@@H]3C[C@H](C)C4=CC(=O)C=C[C@]4(C)[C@@]3(F)[C@@H](O)C[C@@]21C [Fluorometholone Acetate]; 97.6
CNCc1ccc(C)c(NC(=O)c2ccc(Nc3nc(-c4ccccc4)c4ccccc4n3)cc2)c1; 0.42
CCOC(=O)C1=C[C@@H](OC(CC)CC)[C@H](NC(C)=O)[C@@H](N)C1 [Oseltamivir Phosphate]; 110
C=C(C)[C@@H]1CC[C@]2(C(=O)O)CC[C@]3(C)[C@H](CC[C@@H]4[C@@]5(C)CC[C@H](O[C@@H]6OC[C@H](O)[C@H](O)[C@H]6O[C@@H]6O[C@@H](C)[C@H](O)[C@@H](O)[C@H]6O)[C@@](C)(CO)[C@@H]5CC[C@]43C)[C@@H]12 [Pulchinenoside A]; 102
NC(=O)Nc1sc(-c2ccc(F)cc2)cc1C(N)=O; 20.5
c1ccc(-c2ccc(C(c3ccccc3)n3ccnc3)cc2)cc1 (stereo not given); 84.5
CC1(C)[C@@H](O[C@H]2O[C@H](C(=O)O)[C@@H](O)[C@H](O)[C@H]2O[C@@H]2O[C@H](C(=O)O)[C@@H](O)[C@H](O)[C@H]2O)CC[C@]2(C)[C@H]3C(=O)C=C4[C@@H]5C[C@@](C)(C(=O)O)CC[C@]5(C)CC[C@@]4(C)[C@]3(C)CC[C@@H]12 [Diammonium Glycyrrhizinate]; 100

====

Tested on: MARIMO
Test: cell viability relative to vehicle control; higher = less cytotoxic
Conditions: 10 µM; SRSF2 genotype: SRSF2 P95H/wt
Where a name gives a salt, the structure may show the parent alone.
ASSAY METRIC: cell viability (%)

CO[C@H]1C(=O)[C@]2(C)[C@@H](OC)C[C@H]3OC[C@@]3(OC(C)=O)[C@H]2[C@H](OC(=O)c2ccccc2)[C@]2(O)C[C@H](OC(=O)[C@H](O)[C@@H](NC(=O)OC(C)(C)C)c3ccccc3)C(C)=C1C2(C)C [Cabazitaxel (Jevtana)]; 7.53
CC1=C(C/C=C(\C)CCC[C@H](C)CCC[C@H](C)CCCC(C)C)C(=O)c2ccccc2C1=O [Vitamin K1]; 92.4
CC1(N)CCN(c2cnc(-c3cccc(Cl)c3Cl)c(N)n2)CC1 [SHP099 hydrochloride]; 96
O=C(CCc1ccc(O)cc1)c1c(O)cc(O[C@@H]2O[C@H](CO)[C@@H](O)[C@H](O)[C@H]2O)cc1O [Trilobatin]; 99.7
c1ccc2c(Oc3nc(Nc4ccc(N5CCOCC5)cc4)c4ncn(C5CCCCC5)c4n3)cccc2c1 [Purmorphamine]; 86.5
COc1cc(OC)c(/C=C/S(=O)(=O)Cc2ccc(OC)c(NCC(=O)O)c2)c(OC)c1; 5.99
COc1cc2c(cc1OC)[C@@H]1Cc3ccc(OC)c(OC)c3CN1CC2 [Tetrahydropalmatine hydrochloride]; 91.4
CC(C)(CO)n1cc(C(=O)c2cncc(NC(=O)Cc3ccc(Cl)cn3)c2)c2cnc(N)nc21; 115
CNC(=C[N+](=O)[O-])NCCSCc1csc(CN(C)C)n1 [Nizatidine]; 101
CNCCN(C)Cc1c[nH]nc1-c1ccc(O[C@H]2C[C@H](OCCC3CCOCC3)C2)cc1; 89
Cc1nccn1CC1CCc2c(c3ccccc3n2C)C1=O (configuration not stated) [Ondansetron Hydrochloride Dihydrate]; 95.9
CN(NC(=O)CC(=O)NN(C)C(=S)c1ccccc1)C(=S)c1ccccc1 [Elesclomol (STA-4783)]; 11.8
CC(C)C1=CC2=CC[C@@H]3[C@](C)(CCC[C@@]3(C)C(=O)O)[C@H]2CC1 [Abietic Acid]; 105
Cc1[nH]c2ccccc2c1CCNC(=O)c1cccs1; 90
CC(C)[C@H](NC(=O)[C@H](CC(=O)O)NC(=O)[C@H](CCCCN)NC(=O)[C@@H](N)CCCN=C(N)N)C(=O)N[C@@H](Cc1ccc(O)cc1)C(=O)O [Thymopentin]; 86.4
CC1=C[C@]2(O)O[C@@]3(CC2=C(C)C)[C@@H](C)CC[C@@H]13 [Curcumenol]; 96.5
Cc1nc(Nc2n[nH]c3c2CN(C(=O)N[C@H](CN(C)C)c2ccccc2)C3(C)C)c2sccc2n1; 5.65
CC(C)(CO)c1cc2cc(NC(=O)C3(c4ccc5c(c4)OC(F)(F)O5)CC3)c(F)cc2n1C[C@@H](O)CO; 92.7
COc1ccc(CNc2nc(N3CCC[C@H]3CO)ncc2C(=O)NCc2ncccn2)cc1Cl [Avanafil]; 104
C=C1CCC[C@]2(C)C[C@@H]3OC(=O)C(C)=C3C[C@@H]12 [Atractylenolide II]; 96.8
CC[C@H](NC(=O)[C@H](C)NC)C(=O)N1C[C@@H](O)C[C@H]1Cc1c(-c2[nH]c3cc(F)ccc3c2C[C@@H]2C[C@H](O)CN2C(=O)[C@H](CC)NC(=O)[C@H](C)NC)[nH]c2cc(F)ccc12; 78.6
Cc1ccc([N+](=O)[O-])cc1S(=O)(=O)N(C)/N=C/c1cnc2ccc(Br)cn12; 7.47
COc1cccc(-n2c(=O)[nH]c3cc(Cl)n(-c4ccc(-c5cccc(OC)c5O)cc4)c3c2=O)c1; 108
CC(=O)OCc1ccccc1 [Benzyl acetate]; 96.5
COc1cc(-c2oc3cc(O)cc(O)c3c(=O)c2O[C@@H]2O[C@H](CO[C@@H]3O[C@@H](C)[C@H](O)[C@@H](O)[C@H]3O)[C@@H](O)[C@H](O)[C@H]2O)ccc1O [Narcissoside]; 102
NCc1c[nH]c(=S)n1[C@H]1CCc2c(F)cc(F)cc2C1 [Nepicastat hydrochloride]; 92.2
COc1cn(-c2ccc(-n3cccn3)cc2F)nc(-c2ccnn2-c2ccccc2)c1=O; 97.5
CCc1ccc(/C=C2/SC(=S)NC2=O)cc1; 100
CCN(CC)CC#CCOC(=O)C(O)(c1ccccc1)C1CCCCC1 (configuration not stated) [Oxybutynin (Ditropan)]; 82.9
C/C=C(/C)C(=O)O[C@H]1[C@@H](OC(C)=O)c2c(ccc3ccc(=O)oc23)OC1(C)C [(+)-Praeruptorin A]; 84.5
O=C(O)c1c[nH]c2ccccc12 [Indole-3-carboxylic acid]; 97.8
CN1CCc2cc(Nc3ncc(C4CC4)c(NCCCNC(=O)C4CCC4)n3)ccc2C1; 3.21
